Assignment: determine reported EC50 for the given compounds.
Target: human orexin type 2 receptor (hOX2R) (Homo sapiens, UniProt O43614)
Construct: expressed in transfected cells
Sequence (O43614 1-444): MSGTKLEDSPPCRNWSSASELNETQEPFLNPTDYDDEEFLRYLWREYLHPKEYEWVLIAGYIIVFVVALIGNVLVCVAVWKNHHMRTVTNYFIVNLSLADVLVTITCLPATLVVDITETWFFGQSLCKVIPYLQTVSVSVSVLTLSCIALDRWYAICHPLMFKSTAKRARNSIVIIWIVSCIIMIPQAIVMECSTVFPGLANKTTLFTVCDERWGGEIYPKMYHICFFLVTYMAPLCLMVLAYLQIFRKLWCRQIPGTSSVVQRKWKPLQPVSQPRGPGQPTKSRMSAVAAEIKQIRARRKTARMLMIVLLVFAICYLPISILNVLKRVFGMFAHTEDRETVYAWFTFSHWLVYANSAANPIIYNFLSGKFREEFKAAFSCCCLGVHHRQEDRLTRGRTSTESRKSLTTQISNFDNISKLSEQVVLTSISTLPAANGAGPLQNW
Assay: Measurement of orexin type 2 receptor agonist activity (FLIPR calcium fluorescence)
Type: cell-based
Settings: CHO cells expressing hOX2R, FLIPR calcium fluorescence; read-out: hOx2 pEC50 (converted)

Compound	Assay Target	Measured Property	Val
CS(=O)(=O)N[C@@H]1[C@H](Cc2cccc(-c3ccccc3)c2F)N(C(=O)NCC(F)(F)F)CC12CC2 [Compound 99]	human orexin type 2 receptor (hOX2R) (Homo sapiens, UniProt O43614)	EC50	1 to 10 nM
N#CC1(C(=O)N2CC3(CC3)[C@H](NS(=O)(=O)C(F)F)[C@@H]2Cc2cccc(-c3cc(F)cc(F)c3)c2F)CCC1 [Compound 381]	human orexin type 2 receptor (hOX2R) (Homo sapiens, UniProt O43614)	EC50	1 to 10 nM

Below are some compounds; for each one, tell me its EC50.
1. O=C(NC[C@@H]1CCO1)N1CC2(CC2)[C@H](NS(=O)(=O)C(F)F)[C@@H]1Cc1cccc(-c2ccccc2)c1F [Compound 368]
2. CC(F)(F)C(=O)N1CC2(CC2)C(NS(C)(=O)=O)C1Cc1cccc(-c2cccc(F)c2)c1F (racemic) [Compound 24]
3. C[C@H](CF)NC(=O)N1CC2(CC2)[C@H](NS(=O)(=O)CF)[C@@H]1Cc1cccc(-c2ccccc2)c1F [Compound 158]
4. CCN(C)S(=O)(=O)N[C@@H]1[C@H](Cc2cccc(-c3ccccc3)c2)N(C(=O)[C@H]2CCO2)CC12CC2 [Compound 78]
5. O=C([C@H]1CCO1)N1CC2(CC2)[C@H](NS(=O)(=O)C2CC2)[C@@H]1Cc1cc(F)cc(-c2ccccc2)c1F [Compound 349]

["1 to 10 nM", "10 to 100 nM", "0.0794 to 1 nM", "10 to 100 nM", "1 to 10 nM"]

###

Target: human orexin type 2 receptor (hOX2R) (Homo sapiens)
Construct: expressed in transfected cells
Assay: Measurement of orexin type 2 receptor agonist activity (FLIPR calcium fluorescence)
Format: cell-based
Conditions: CHO cells expressing hOX2R, FLIPR calcium fluorescence; read-out: hOx2 pEC50 (converted)
Description: The biological activity of the compounds of the present disclosure may be determined in cells stably expressing either orexin type 2 or orexin type 1 receptor. […] The agonist activity of a compound of the present disclosure may be determined by fluorescence value. Stable cell line generation. Measurement of orexin type 2 receptor agonist activity. […] As used herein, E. indicates the value at 10 μM concentration when orexin A is converted to a full agonist (maximum value of agonist activity. 100%).
Assignment: determine reported EC50 for the given molecules.

Molecule	EC50
CC(C)(F)C(=O)N1CC2(CC2)C(NS(C)(=O)=O)C1Cc1cccc(-c2ccccc2)c1 (racemic)	100 to 1000 nM

Below are some molecules; for each one, tell me its EC50.
1. CC(F)C(=O)N1CC2(CC2)C(NS(C)(=O)=O)C1Cc1cccc(-c2ccccc2)c1 (single isomer, unassigned) [Compound 2]
2. CN(CCF)C(=O)N1CC2(CC2)[C@H](NS(C)(=O)=O)[C@@H]1Cc1cccc(-c2ccccc2)c1F
3. O=C(NCC(F)F)N1CC2(CC2)[C@H](NS(=O)(=O)C(F)F)[C@@H]1Cc1cccc(-c2cc(F)cc(F)c2)c1F
4. CS(=O)(=O)N[C@@H]1[C@H](Cc2cccc(-c3ccccc3)c2F)N(C(=O)NC2CC(F)C2)CC12CC2 (some centres unmarked)

1: 100 to 1000 nM; 2: 1 to 10 nM; 3: 0.0794 to 1 nM; 4: 10 to 100 nM
